targetUnderTest: Human Factor B (human) (UniProt P00751)
Sequence (P00751 26-764 limits assumed): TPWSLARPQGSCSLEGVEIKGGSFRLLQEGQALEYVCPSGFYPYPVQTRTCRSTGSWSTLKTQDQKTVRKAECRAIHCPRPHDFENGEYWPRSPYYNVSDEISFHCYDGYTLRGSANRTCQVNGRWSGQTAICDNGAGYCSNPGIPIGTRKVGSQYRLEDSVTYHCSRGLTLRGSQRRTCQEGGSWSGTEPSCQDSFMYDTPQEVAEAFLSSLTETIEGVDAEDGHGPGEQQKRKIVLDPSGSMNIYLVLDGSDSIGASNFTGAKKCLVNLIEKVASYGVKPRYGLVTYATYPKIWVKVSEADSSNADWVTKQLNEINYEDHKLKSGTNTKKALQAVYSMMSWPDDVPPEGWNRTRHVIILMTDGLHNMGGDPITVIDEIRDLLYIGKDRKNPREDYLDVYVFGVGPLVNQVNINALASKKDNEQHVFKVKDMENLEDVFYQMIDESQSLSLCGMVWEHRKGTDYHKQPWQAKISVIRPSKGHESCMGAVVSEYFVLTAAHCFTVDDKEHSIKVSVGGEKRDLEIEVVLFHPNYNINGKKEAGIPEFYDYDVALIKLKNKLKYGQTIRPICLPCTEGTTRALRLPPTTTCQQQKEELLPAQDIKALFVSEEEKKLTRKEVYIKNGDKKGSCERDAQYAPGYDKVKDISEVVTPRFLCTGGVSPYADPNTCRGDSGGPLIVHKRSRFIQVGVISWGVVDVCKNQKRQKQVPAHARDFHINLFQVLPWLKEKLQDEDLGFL
test: cell-based or functional assay
resultType: fB Cleavage EC50 (µM)
Entry rule: numbers only, all in µM.

Consider the worked cases shown below.
chymase E21G/C22S/R61H/M135T/F173Y/D175N/A209V/A226R (enzyme) IIGGTGSKPHSRPYMAYLEIVTSNGPSKFCGGFLIRRNFVLTAAHCAGHSITVTLGAHNITEEEDTWQKLEVIKQFRHPKYNTSTLHHDIMLLKLKEKASLTLAVGTLPFPSQFNFVPPGRTCRVAGWGRTGVLKPGSDTLQEVKLRLMDPQACSHYRNFDHNLQLCVGNPRKTKSAFKGDSGGPLLCAGVVQGIVSYGRSDAKPPRVFTRISHYRPWINQILQAN : 1.26
chymase C22S/L99R/K192R/S218L/A226R (enzyme) IIGGTESKPHSRPYMAYLEIVTSNGPSKFCGGFLIRRNFVLTAAHCAGRSITVTLGAHNITEEEDTWQKLEVIKQFRHPKYNTSTRHHDIMLLKLKEKASLTLAVGTLPFPSQFNFVPPGRMCRVAGWGRTGVLKPGSDTLQEVKLRLMDPQACSHFRDFDHNLQLCVGNPRKTKSAFRGDSGGPLLCAGVAQGIVSYGRLDAKPPRVFTRISHYRPWINQILQAN : 7.51
chymase C22S/L99W/F173K/R217S/S218R/A226R (enzyme) IIGGTESKPHSRPYMAYLEIVTSNGPSKFCGGFLIRRNFVLTAAHCAGRSITVTLGAHNITEEEDTWQKLEVIKQFRHPKYNTSTWHHDIMLLKLKEKASLTLAVGTLPFPSQFNFVPPGRMCRVAGWGRTGVLKPGSDTLQEVKLRLMDPQACSHKRDFDHNLQLCVGNPRKTKSAFKGDSGGPLLCAGVAQGIVSYGSRDAKPPRVFTRISHYRPWINQILQAN : 2.66

Now for a further binder.
Input line: Return reported fB Cleavage EC50; argument: chymase C22S/F41G/L99H/G151T/F173Y/Y215K/A226R (enzyme) IIGGTESKPHSRPYMAYLEIVTSNGPSKGCGGFLIRRNFVLTAAHCAGRSITVTLGAHNITEEEDTWQKLEVIKQFRHPKYNTSTHHHDIMLLKLKEKASLTLAVGTLPFPSQFNFVPPGRMCRVAGWGRTGVLKPTSDTLQEVKLRLMDPQACSHYRDFDHNLQLCVGNPRKTKSAFKGDSGGPLLCAGVAQGIVSKGRSDAKPPRVFTRISHYRPWINQILQAN
Output line: 6.6
